pKi: −log10 of the molar value.
Trace amine-associated receptor 1 (Mus musculus, UniProt Q923Y8) pKi, compiled from various sources.
parameter.measured: pKi

A = FC(F)(c1ccc(Br)cc1)C1CNC1
B = CC(C)c1n[nH]c(C(=O)Nc2ccc(OC3CNC3)cc2)c1Cl
// query Kindly identify the item with the lower pKi figure among these two: A and B // return label of chosen record
// result A
(A: 5.86, B: 8.12)

I = CCc1ncc(C(=O)Nc2ccc(OC3CNC3)cc2)cn1
II = c1ccc(Oc2cccc(NCc3ncc[nH]3)c2)cc1
// query Kindly identify the item with the lower pKi figure among these two: I and II // return label of chosen record
// result I
(I: 7.24, II: 7.58)

I = O=C(Nc1ccc(CC2(F)CNC2)cc1)Nc1cccc(Cl)c1
II = O=C(Nc1ccc(CC2(F)CNC2)cc1)c1cnc(C(F)(F)F)cn1
III = COCCN(Cc1ncc[nH]1)c1ccccc1
IV = c1ccc(CC2CNC2)cc1
V = FC(F)(F)c1cnc(Nc2ccc(OC3CNC3)cc2)nc1
// query Sort these molecules on pKi so the largest reading comes first. Order the labels as requested and give them as your answer.
// result I, II, V, III, IV

I = O=C(Nc1ccc(CC2(F)CNC2)cc1)c1ccc(Cl)nc1
II = O=C(Nc1ccc(C[C@@H]2NC[C@@H]2F)cc1)c1cnc(C2CC2)nc1
III = COC1(Cc2ccc(NC(=O)c3cnc(C(F)(F)F)nc3)cc2)CNC1
IV = CC(C)N(Cc1ncc[nH]1)c1ccc(F)cc1
V = CN(C[C@H]1COC(N)=N1)c1cccc(Br)c1
// query Sort these molecules on pKi so the largest reading comes first. Order the labels as requested and give them as your answer.
// result V, I, II, III, IV

a = Cc1ccc(NC[C@H]2COC(N)=N2)c(F)c1
b = FC(F)(F)c1nccc(Nc2ccc(C=C3CNC3)cc2)n1
// query Among a and b , which shows a numerically higher pKi result? // return label of chosen record
// result a
(a: 8.55, b: 8.09)

P = CCN(C[C@@H]1COC(N)=N1)c1ccc(F)c(OC)c1
Q = CC(C)c1cc(C(=O)Nc2ccc(OC3CNC3)cc2)[nH]n1
R = CCN(C[C@H]1COC(N)=N1)c1ccc(Cl)c(OC)c1
// query Sort these molecules on pKi so the largest reading comes first. Order the labels as requested and give them as your answer.
// result R, P, Q
(R: 8.64, P: 8.39, Q: 6.86)

I = CCN(C[C@H]1COC(N)=N1)c1ccc2c(c1)CCC2
II = O=C(Nc1ccc(OC2CNC2)cc1)c1[nH]nc(C2CC2)c1Cl
// query Kindly identify the item with the lower pKi figure among these two: I and II // return label of chosen record
// result I
(I: 8.22, II: 8.48)

a = CCN(C[C@H]1COC(N)=N1)c1ccc(Br)cc1
b = COc1cccc(N(C)Cc2ncc[nH]2)c1
c = CCN(C[C@@H]1COC(N)=N1)c1cc(F)cc(C(F)(F)F)c1
// query Would you mind ranking these molecules by ascending pKi? Order the labels as requested and give them as your answer.
// result b, c, a
(b: 7.14, c: 8.29, a: 8.55)

---

Trace amine-associated receptor 1 (Mus musculus) Ki, compiled from various sources.
parameter.measured: Ki (nM)

// known answers, use as guide
O=C(Nc1ccc(C=C2CNC2)cc1)c1ccc(Cl)nc1
2.6
CCc1cc(C(=O)Nc2cc(F)c(C=C3CNC3)c(F)c2)nc(C(F)(F)F)n1
12.2
O=C(Nc1ccc(C=C2CNC2)cc1)c1ccc(Cl)cc1
121
CCc1n[nH]c(C(=O)Nc2ccc(CC3(F)CNC3)cc2)c1Cl
323
NC1=N[C@@H](CNc2ccc(C(F)(F)F)c(F)c2)CO1
4.6
O=C(Nc1ccc(C=C2CNC2)cc1)Nc1ccc(C(F)(F)F)cc1
3.7

A = Fc1ccc(NCc2ncc[nH]2)cc1Cl
B = CCc1n[nH]c(C(=O)Nc2ccc(OC3CNC3)cc2)c1Cl
C = O=C(Nc1ccc(OC2CNC2)cc1)c1cnc(C(F)(F)F)cn1
D = O=C(Nc1ccc(C=C2CNC2)cc1)c1n[nH]c(C2CC2)c1Cl
E = CC(C)N(Cc1ncc[nH]1)c1cccc(Oc2cccnc2)c1
// query Would you mind ranking these compounds by ascending Ki? Order the labels as requested and give them as your answer.
// result D, B, C, E, A
(D: 1.4 nM, B: 3.5 nM, C: 5.2 nM, E: 25 nM, A: 83.9 nM)
